# Test system: TO-N3 (biotin conjugate)
# method_notes: pull-down binding Z-score (relative to library population); higher = stronger binding
# recorded_conditions: RNA library: Library-2
So basically: pull-down binding Z-score at -0.7 or higher? That is Satisfied. Lower than -0.7? That is Not satisfied.

Q: Kindly determine if pull-down binding Z-score recorded for AUUUUCACUUAAU [hsa-mir-302f] is above or exactly -0.7.
Ans: Satisfied

Q: Kindly determine if pull-down binding Z-score recorded for UCUUGAAUUUUUGCCAGUUCAAGA [hsa-mir-5197] is above or exactly -0.7.
Ans: Not satisfied

Q: Kindly determine if pull-down binding Z-score recorded for UUGCUUAAG [hsa-mir-924] is above or exactly -0.7.
Ans: Satisfied

Q: Kindly determine if pull-down binding Z-score recorded for `GCUGUAGUGUUACUAAUCCUUAUGACAGC` is above or exactly -0.7.
Ans: Satisfied

Q: Kindly determine if pull-down binding Z-score recorded for `UGUGCUUGUGAAAUUGUCGGUGGACAAAUUGUCACCUGUGCA` is above or exactly -0.7.
Ans: Not satisfied

The values you see were collected from the supplement of paper PMC11865577.
